This listing pairs binders with measured cAMP assay-1 IC50.
- Assay System: full-length human GCGR on CHO cells (human, UniProt P47871 26-477)
- Sequence (P47871 26-477): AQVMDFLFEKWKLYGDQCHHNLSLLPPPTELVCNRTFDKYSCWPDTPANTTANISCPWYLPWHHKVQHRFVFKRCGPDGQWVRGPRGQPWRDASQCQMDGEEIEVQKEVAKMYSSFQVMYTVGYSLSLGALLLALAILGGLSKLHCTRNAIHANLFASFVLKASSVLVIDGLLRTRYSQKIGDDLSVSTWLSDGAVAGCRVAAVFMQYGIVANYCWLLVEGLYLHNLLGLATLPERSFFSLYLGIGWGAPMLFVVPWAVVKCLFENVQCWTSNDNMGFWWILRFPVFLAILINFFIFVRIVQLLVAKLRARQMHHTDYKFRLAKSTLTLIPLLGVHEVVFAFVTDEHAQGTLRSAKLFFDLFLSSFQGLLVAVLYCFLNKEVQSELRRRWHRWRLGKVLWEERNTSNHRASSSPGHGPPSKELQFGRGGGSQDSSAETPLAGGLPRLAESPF
- Run Description: cell-based or functional assay
Write the number in nM without appending the unit.

Example cases with answers are listed next.
[[record]]
binder = "anti-GCGR antibody 3H5 (antibody, V domains shown, mouse hybridoma monoclonal antibody; also called 3H-15) VH: QVQLQQSGAELVKPGASVRLSCKASGNTFTNYWMHWVKQRPGQGLEWIGMIHPNSGSTHYNEKFKNKATLTVDKSSNTAYMQLSGLTSEDSAVYYCGATADYVMDYWGQGTSVTVSS VL: DIVLTQTPLSLPVNIGDQASISCKSTKSLLNSDGFTYLDWYLQKPGQSPQLLINLVSNRFSGVPDRFSGSGSGTEFILKISRVEAEDLGVYYCFQSNFLPLTFGAGTKLELK"
numeric_readout = 24.6

[[record]]
binder = "anti-GCGR antibody 1H2 (antibody, V domains shown, mouse hybridoma monoclonal antibody) VH: QVQLQQPGAELVKPGASVKMSCKVSGYTFTSYWITWVKQRPGQGLEWIGDIHPGGGDTNYNKKFKSKATLTVDTSSSTAYMQLSSLTSEDSAVYHCTSDDNYVGFTYWGQGTLVTVSA VL: DVLMTQTPLSLPVSLGDQASISCRSSQTIIHSDGNTYLEWYLQKPGQSPILLIYKVSNRFSGVPDRFSGSGSGTDFTLKISRVEAEDLGVYYCFQGSHVPWTFGGGTKLEIK"
numeric_readout = 3.78

[[record]]
binder = "anti-GCGR antibody 1C3 (antibody, V domains shown, mouse hybridoma monoclonal antibody) VH: EVQLQQSGPELVKPGASVKMSCKASGYTFTSSVMHWVKQKPGQALEWIGYINPYNDGTKYNENFKGKATLTSDRSSTTAYMELSSLTSEDSAVYYCVTGAGYDRGPMAMDYWGQGTSVTVSS VL: NIVLTQSPASLAVSLGQRATISCRASESVDSYGDSFVHWYQQKPGQPPKLLIYFASNLESGVPARFSGSGSRTDFTLTIDPVEADDTATYYCQQNNEVPFTFGSGTKLELK"
numeric_readout = 6.42

[[record]]
binder = "anti-GCGR antibody 14F4 (antibody, V domains shown, mouse hybridoma monoclonal antibody; also called 141F4) VH: QVQLQQSGAELVRPGTSVNMSCKATGYTFTNYWIGWVKQRPGHGLEWIGDIFPGGFYSNYNEKFKGKATLTTDTSSSTGYMQLSSLTSEDSAIYYCARIWDRGFDYWGQGTTLTVSS VL: DVLMTQSPLSLPVSLGDQASISCRSSQSIVDSYGNTYLEWYLQKPGQSPKLLIYKVSNRFSGVPDRFSGSGSGTDFTLKISRVEAEDRGLYYCFQGSHVPYTFGGGTKLEIK"
numeric_readout = 16


Now consider a different binder.
Return reported cAMP assay-1 IC50. Input binder: anti-GCGR antibody 6B5 (antibody, V domains shown, mouse hybridoma monoclonal antibody; also called 61B5) VH: QVQLQQSGTELVRPGTSVKISCKASGFTFTNHWLGWVKQRPGHGLEWIGDIYPGGYYINYNEKFKGKATLTADTSSSTAYMQLSSLTSEDSAVYFCARHTNYGSDYWGQGTTLTVSS VL: DVLMTQIPLSLPVSLGDQASISCRSSQSIVDSYGNTFLEWYLQKPGQSPKLLIYKVSNRLSGVPDRFSGTGAGTDFTLKISRVEAEDLGIYYCFQGSHVPWTFGGGTKLEIK 6.42
